Test system: blackgrass
Test: Test B pre/postemergence blackgrass
Assay type: in vivo, Alopecurus myosuroides
Details: Preemergence, Rate 250 g/ha; scale of 0 to 10 where 0 is no effect and 10 is complete control
EXPERIMENTAL READOUT: Blackgrass plant response rating
Would you mind answering with just the numeric figure?

CC(C)N(C(=O)n1oc(=O)n(C2CC3CCC2C3)c1=O)c1ccc(F)cc1F (centres unmarked) [Compound 326] :: 7

For the molecule shown here, CC(C)N(C(=O)n1oc(=O)n(CC#C[Si](C)(C)C)c1=O)c1ccc(F)cc1 [Compound 213] , give the reported Blackgrass plant response rating.
0

For the molecule shown here, CC(C)N(C(=O)n1oc(=O)n(C2CCCCCC2)c1=O)c1ccc(Cl)cc1 [Compound 339] , give the reported Blackgrass plant response rating.
2

For the molecule shown here, C=CCn1c(=O)on(C(=O)N(c2ccc(F)cc2)C(C)C(=O)OCC)c1=O (centres unmarked) [Compound 279] , give the reported Blackgrass plant response rating.
0

For the molecule shown here, CC(C)N(C(=O)n1oc(=O)n(-c2ccc3ccccc3c2)c1=O)c1ccc(F)cc1F [Compound 335] , give the reported Blackgrass plant response rating.
0

For the molecule shown here, CC(C)N(C(=O)n1oc(=O)n(CC(=O)OC(C)(C)C)c1=O)c1ccc(F)cc1 [Compound 265] , give the reported Blackgrass plant response rating.
0

For the molecule shown here, CC(C)N(C(=O)n1oc(=O)n(C2CCCC2)c1=O)c1ccc(F)cc1F [Compound 284] , give the reported Blackgrass plant response rating.
8

For the molecule shown here, Cc1nc(Cl)sc1C(C)n1c(=O)on(C(=O)N(c2ccc(Cl)cc2)C(C)C)c1=O (centres unmarked) [Compound 406] , give the reported Blackgrass plant response rating.
0
